experiment description: Inhibition of human recombinant Cathepsin L-like protease using Z-FR-AMC as substrate preincubated for 30 mins followed by substrate addition and measured after 1.5 hrs by fluorescence based analysis
Where a SMILES comes first, the peptide text is derived from it. The star is where a group is joined. Butyryl = CCCC(=O)*
The following molecules are listed with their measured pIC50 values.
pIC50 here is simply -log10 of the concentration when that concentration is written in mol/L.

- molecule: "CC(C)C[C@H](NC(=O)c1ccc([N+](=O)[O-])cc1)C(=O)N[C@H](C=O)Cc1ccccc1"
  number: 8.09

Could you share which pIC50 value was measured for CC(C)C[C@H](NC(=O)/C=C/c1ccc(C(F)(F)F)cc1)C(=O)N[C@H](C=O)Cc1ccccc1 ?
7.12

Please look up its pIC50: CCCC(=O)N[C@@H](CC(C)C)C(=O)N[C@H](C=O)Cc1ccccc1 (Butyryl-Leu-Phe-aldehyde)
7.14

Please report the recorded pIC50 for CC(C)C[C@H](NC(=O)c1cccc(F)c1)C(=O)N[C@H](C=O)Cc1ccccc1 .
8.12

What does the record list as pIC50 for CC(C)C[C@H](NC(=O)C1CCCCC1)C(=O)N[C@H](C=O)Cc1ccccc1 ?
8.22

---

experiment description: Inhibition of human recombinant Cathepsin L-like protease using Z-FR-AMC as substrate preincubated for 30 mins followed by substrate addition and measured after 1.5 hrs by fluorescence based analysis
Where a SMILES comes first, the peptide text is derived from it. The star is where a group is joined. Hydrocinnamoyl = O=C(CCc1ccccc1)*; Cbz = O=C(OCc1ccccc1)*; PhAc = O=C(Cc1ccccc1)*
value type: IC50 (nM)
Respond with the bare value in nM.

Below, 3 compounds whose answers are already recorded.
- compound: "CC(C)C[C@H](NC(=O)Cc1ccccc1)C(=O)N[C@H](C=O)Cc1ccccc1 (PhAc-Leu-Phe-aldehyde)"
  IC50 [nM]: 7.82
- compound: "CC(C)C[C@H](NC(=O)OCc1ccccc1)C(=O)N[C@H](C=O)Cc1ccccc1 (Cbz-Leu-Phe-aldehyde)"
  IC50 [nM]: 9.88
- compound: "CC(C)C[C@H](NC(=O)Cc1c[nH]c2ccccc12)C(=O)N[C@H](C=O)Cc1ccccc1"
  IC50 [nM]: 3.18

Data request, read-out IC50, for O=C[C@H](Cc1ccccc1)NC(=O)[C@H](Cc1ccc(Cl)cc1)NC(=O)/C=C/c1ccccc1
8.91

Using the record for CC(C)C[C@H](NC(=O)c1cccc2ccccc12)C(=O)N[C@H](C=O)Cc1ccccc1 , report its IC50.
1.26

So what's the measured IC50 for this one? CC(C)C[C@H](NC(=O)/C=C/c1ccccc1)C(=O)N[C@H](C=O)Cc1ccccc1Cl
58

Please give the measured IC50 for this compound: CC(C)C[C@H](NC(=O)/C=C/c1ccccc1)C(=O)N[C@H](C=O)Cc1ccc([N+](=O)[O-])cc1
345

// query IC50 value for entry CC(C)C[C@H](NC(=O)CCc1ccccc1)C(=O)N[C@H](C=O)Cc1ccccc1 (Hydrocinnamoyl-Leu-Phe-aldehyde)
18.2

Reported IC50 for O=C[C@H](Cc1ccccc1)NC(=O)[C@H](Cc1ccccc1)NC(=O)/C=C/c1ccccc1 : what is it?
6.65
